Where do the numbers come from? From paper PMC8343220.

Entries and their measured Log KD, ^3H‐prazosin binding follow.
Target: human α1B‐adrenoceptor (Homo sapiens)
Construct: expressed in transfected cells; host or cells: CHO-K1
Sequence (P35368 1-520): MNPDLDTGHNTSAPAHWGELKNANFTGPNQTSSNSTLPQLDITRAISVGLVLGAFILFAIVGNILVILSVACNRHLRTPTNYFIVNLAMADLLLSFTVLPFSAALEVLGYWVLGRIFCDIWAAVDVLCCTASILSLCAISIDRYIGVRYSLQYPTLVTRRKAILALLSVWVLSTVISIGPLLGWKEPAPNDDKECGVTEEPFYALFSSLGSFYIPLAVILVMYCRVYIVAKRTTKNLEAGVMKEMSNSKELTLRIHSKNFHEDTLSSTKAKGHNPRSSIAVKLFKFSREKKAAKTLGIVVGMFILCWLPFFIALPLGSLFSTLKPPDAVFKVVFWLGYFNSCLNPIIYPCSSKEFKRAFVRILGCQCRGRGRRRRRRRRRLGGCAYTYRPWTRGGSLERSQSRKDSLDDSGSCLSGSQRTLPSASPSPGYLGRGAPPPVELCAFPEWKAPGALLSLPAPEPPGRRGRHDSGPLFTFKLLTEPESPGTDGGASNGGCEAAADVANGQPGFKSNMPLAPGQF
Experiment: ^3H‐prazosin whole‐cell radioligand binding, CHO‐α1B cells
Settings: CHO‐α1B cells, whole‐cell binding (from Table 1); given as log KD (negative numbers)
assay_readout: Log KD, ^3H‐prazosin binding

[[record]]
compound = "Cc1sc(C)c2c1CCC=C2c1cnc[nH]1.O=C(O)/C=C\\C(=O)O [T‐CG 1000]"
reported = "−5.18"

[[record]]
compound = "COCc1c(Cl)ccc2c1CC[C@H]2c1ncc[nH]1 [PF3774076]"
reported = "−4.74"

[[record]]
compound = "C=CCN1CCc2nc(N)sc2CC1 [BHT920]"
reported = "−3.73"

[[record]]
compound = "CCc1cccc(CC)c1NC1=NCCN1 [ST‐91]"
reported = "−4.39"


###

Entries and their measured cAMP accumulation % forskolin follow.
target: human α1B‐adrenoceptor (Homo sapiens, UniProt P35368); construct: expressed in transfected cells; host or cells: CHO-K1; test: ^3H‐cAMP accumulation, CHO‐α1B cells; format: cell-based; conditions: CHO‐α1B cells; % forskolin maximum response
assay_readout: cAMP accumulation % forskolin (%)

[[record]]
molecule = "c1ccc2c(CC3=NCCN3)cccc2c1"
assay_readout = "cAMP accumulation % forskolin"
units_label = "%"
reported = 3.9

[[record]]
molecule = "c1ccc(C2CC2)c(OCC2=NCCN2)c1"
assay_readout = "cAMP accumulation % forskolin"
units_label = "%"
reported = 11.4

[[record]]
molecule = "Clc1ccc2nsnc2c1NC1=NCCN1"
assay_readout = "cAMP accumulation % forskolin"
units_label = "%"
reported = 10.7

[[record]]
molecule = "NC[C@H](O)c1ccc(O)c(O)c1"
assay_readout = "cAMP accumulation % forskolin"
units_label = "%"
reported = 155.5

[[record]]
molecule = "C=CCc1ccccc1OC(C)C1=NCCN1 (stereo not shown)"
assay_readout = "cAMP accumulation % forskolin"
units_label = "%"
reported = 5.5

[[record]]
molecule = "CCc1cccc(CC)c1NC1=NCCN1"
assay_readout = "cAMP accumulation % forskolin"
units_label = "%"
reported = 30.4

[[record]]
molecule = "CS(=O)(=O)Nc1c(O)ccc2c1CCCC2C1=NCCN1 (stereo not shown)"
assay_readout = "cAMP accumulation % forskolin"
units_label = "%"
reported = 5.3

[[record]]
molecule = "CNC[C@H](O)c1ccc(O)c(O)c1"
assay_readout = "cAMP accumulation % forskolin"
units_label = "%"
reported = 172.1

[[record]]
molecule = "Clc1cccc(Cl)c1N=C1NCCN1"
assay_readout = "cAMP accumulation % forskolin"
units_label = "%"
reported = 7.5

[[record]]
molecule = "Cc1cccc(C(C)c2cnc[nH]2)c1C (stereo not shown)"
assay_readout = "cAMP accumulation % forskolin"
units_label = "%"
reported = 4.6

[[record]]
molecule = "Cc1cccc(Cc2c[nH]cn2)c1C"
assay_readout = "cAMP accumulation % forskolin"
units_label = "%"
reported = 2.8

[[record]]
molecule = "N=C(N)NC(=O)Cc1c(Cl)cccc1Cl"
assay_readout = "cAMP accumulation % forskolin"
units_label = "%"
reported = 39.0

[[record]]
molecule = "Brc1c(NC2=NCCN2)ccc2nccnc12 [Brimonidine]"
assay_readout = "cAMP accumulation % forskolin"
units_label = "%"
reported = 4.5

[[record]]
molecule = "Brc1c(NC2=NCCN2)ccc2nccnc12 [UK14304]"
assay_readout = "cAMP accumulation % forskolin"
units_label = "%"
reported = 2.7

